Overview of reported pIC50 across a group of molecules:
System Tested: GABAA receptor ([35S]-TBPS binding site, rat brain cortical membranes)
Method Notes: Displacement of [35S]-TBPS binding, rat brain cortical membranes
Assay Context: 5 μM GABA, 2 nM [35S]-TBPS; ± standard error of the means
pIC50 field: float, defined as -log10 of concentration (mol/L).

molecule="C=C1CCC[C@]23CCC4C(CC[C@H]5C[C@H](O)CC[C@]45C)C2CC[C@H]13 (stereo partly shown)" system_tested="GABAA receptor ([35S]-TBPS binding site, rat brain cortical membranes)" measured_attribute=pIC50 observed_measurement=6.74
molecule="C[C@]12CC[C@@H](O)C[C@@H]1CCC1C3CC[C@@H]4C(C#N)=CCC[C@]34CCC12 (stereo partly shown)" system_tested="GABAA receptor ([35S]-TBPS binding site, rat brain cortical membranes)" measured_attribute=pIC50 observed_measurement=6.36

query: Consider the molecule CC12CCC(O)CC1CCC1C2CCC23CCC(=CC#N)C2CCC13 (stereo not shown) [Compound 97] . State its measured pIC50.
result: 4.76

query: Supply reported pIC50 belonging to this molecule: C[C@]12CC[C@@H](O)C[C@H]1CCC1C3CC[C@@H]4C(=O)CCC[C@]34CCC12 (stereo partly shown)
result: 5.75
